# TEST TARGET: Acetylcholinesterase (Homo sapiens, UniProt P22303)
# Sequence (P22303 whole entry): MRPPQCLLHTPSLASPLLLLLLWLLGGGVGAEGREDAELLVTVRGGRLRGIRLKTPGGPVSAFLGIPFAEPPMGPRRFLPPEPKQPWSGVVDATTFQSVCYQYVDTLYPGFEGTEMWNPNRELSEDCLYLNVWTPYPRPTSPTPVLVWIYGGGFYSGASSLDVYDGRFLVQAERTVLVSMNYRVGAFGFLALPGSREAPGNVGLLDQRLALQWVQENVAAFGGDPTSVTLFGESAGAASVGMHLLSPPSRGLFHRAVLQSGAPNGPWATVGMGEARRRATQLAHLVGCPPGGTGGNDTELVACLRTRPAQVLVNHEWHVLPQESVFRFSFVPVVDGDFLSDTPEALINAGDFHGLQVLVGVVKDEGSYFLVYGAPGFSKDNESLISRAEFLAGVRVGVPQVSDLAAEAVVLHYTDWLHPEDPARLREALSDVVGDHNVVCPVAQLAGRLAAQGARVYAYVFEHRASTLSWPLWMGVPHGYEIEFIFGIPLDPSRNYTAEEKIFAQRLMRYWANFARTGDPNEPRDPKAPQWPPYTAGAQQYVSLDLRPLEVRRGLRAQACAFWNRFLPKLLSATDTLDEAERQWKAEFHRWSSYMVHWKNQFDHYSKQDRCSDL
# PROTOCOL TEXT: Inhibition of AChE in erythrocytes (unknown origin) pre-incubated for 20 mins before acetylthiocholine substrate addition and measured over 30 mins by DTNB dye based spectrophotometry
MEASURE NAME: IC50 (nM)
Answers are plain numbers, in nM.

# input Please look up its IC50: Brc1ccc(-c2nnn3c2C2c4ccccc4CCN2Cc2ccccc2-3)cc1 (stereo unspecified)
# output 250
